- Test target: pooled human IgG (human IgG1, 2, 3 and 4)
Value kind: Enzyme Activity Endpoint Assay (purified): Fab′2 (ng/µL)
Write the number in ng/µL without appending the unit.

For this protein ( PRT-413 (protein) MTITSVWTKGVTPPTPEDFRENNEDVLHAPYVANQGWYDITKTFDGKDNLLCGAATAGNMLHWWFDQNKEEIERYLKKHPEKQKIIFNNQELFDVKAAIDTKDSQTNSKLFNYFRDKAFPNLSARQLGVMPDLVLDMFINGYYLNLGKTQSTDVNRPYQDKDKRGGIFDAVFTRGDQTTLLTARHDLKNKGLNEISDLIKQELTEGKALALSHTYANVRINHVINLWGADFDAEGNLIAIYVTDSDANASIGMKKYFVGVNANGKVAISAKKIEGDNIGAQVLGLFTLSTGQDIWQKLS ), measured Enzyme Activity Endpoint Assay (purified): Fab′2 is 485
